targetOrSystem: T1, IL-23R on human cells (IL-23R-expressing DB cells; human NK cells) (human, UniProt Q5VWK5 24-629)
T1 sequence (looked up): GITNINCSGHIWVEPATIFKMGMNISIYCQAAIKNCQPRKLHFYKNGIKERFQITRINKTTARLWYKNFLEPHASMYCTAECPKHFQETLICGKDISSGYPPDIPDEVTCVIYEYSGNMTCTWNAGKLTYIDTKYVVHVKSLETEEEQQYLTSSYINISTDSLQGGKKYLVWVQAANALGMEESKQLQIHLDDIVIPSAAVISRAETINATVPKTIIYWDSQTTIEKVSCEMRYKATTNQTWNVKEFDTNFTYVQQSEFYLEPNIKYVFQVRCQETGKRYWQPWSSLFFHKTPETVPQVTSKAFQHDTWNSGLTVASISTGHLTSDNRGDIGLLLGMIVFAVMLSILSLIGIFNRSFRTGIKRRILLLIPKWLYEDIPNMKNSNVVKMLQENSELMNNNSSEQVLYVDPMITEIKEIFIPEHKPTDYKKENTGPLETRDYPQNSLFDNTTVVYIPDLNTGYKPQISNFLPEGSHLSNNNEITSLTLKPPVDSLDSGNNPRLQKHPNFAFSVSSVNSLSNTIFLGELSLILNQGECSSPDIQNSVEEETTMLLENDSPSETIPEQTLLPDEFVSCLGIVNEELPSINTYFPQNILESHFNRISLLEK
procedureSummary: cell-based or functional assay
*1 amine or outer side, *2 acyl side, *3 side chain or, on linkers, in order; H or OH if unused. Bridges are numbered along the chain shown (N, C = ends). Primed or numbered codes have the meaning given here. [ ]: non-standard residue; d: D form. Phe(4-OMe)(3) = O-methyl-L-tyrosine (4-methoxy-L-phenylalanine), COc1ccc(C[C@H](N[*:1])C(=O)[*:2])cc1; 2Nal = N[C@@H](Cc1ccc2ccccc2c1)C(=O)O; αMeK = C[C@](N)(CCCCN)C(=O)O; Abu = CC[C@H](N)C(=O)O
Listing: pStat3 HTRF IC50 of selected binders

Summary for this binder, Ac-[Abu]QTWQC[Phe(4-OMe)(3)][2Nal][αMeK]K(Ac)NS-NH2 (thioether 1-6) [Ac-Cyclo-[[Abu]-QTWQC]-[Phe(4-OMe)]-[2-Nal][α-MeLys]-[Lys(Ac)]-NS-NH2] : pStat3 HTRF IC50 is < 10 nM
